Target or system: UniProt:Q9Y6L6
Sequence (Q9Y6L6 whole entry): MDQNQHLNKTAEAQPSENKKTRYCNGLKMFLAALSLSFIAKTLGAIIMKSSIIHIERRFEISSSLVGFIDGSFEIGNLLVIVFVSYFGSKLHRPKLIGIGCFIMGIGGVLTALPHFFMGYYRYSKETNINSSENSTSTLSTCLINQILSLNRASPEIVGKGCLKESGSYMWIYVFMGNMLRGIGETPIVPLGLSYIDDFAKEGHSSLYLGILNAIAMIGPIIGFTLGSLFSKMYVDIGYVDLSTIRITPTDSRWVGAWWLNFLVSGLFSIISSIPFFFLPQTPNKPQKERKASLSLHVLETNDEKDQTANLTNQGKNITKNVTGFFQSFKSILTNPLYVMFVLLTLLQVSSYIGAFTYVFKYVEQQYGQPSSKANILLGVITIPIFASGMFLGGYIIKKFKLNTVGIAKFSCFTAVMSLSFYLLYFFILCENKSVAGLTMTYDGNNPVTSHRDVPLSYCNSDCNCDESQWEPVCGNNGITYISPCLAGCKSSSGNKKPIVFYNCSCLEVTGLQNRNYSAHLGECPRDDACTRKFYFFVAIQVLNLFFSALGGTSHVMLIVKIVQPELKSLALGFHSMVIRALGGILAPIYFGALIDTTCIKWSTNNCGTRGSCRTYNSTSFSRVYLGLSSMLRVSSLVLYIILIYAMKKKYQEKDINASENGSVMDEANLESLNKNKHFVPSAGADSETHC
Assay details: TP_TRANSPORTER: inhibition of E217betaG uptake in OATP-C-expressing HEK293 cells
Observation type: pKi
Reminder that pKi is minus the log10 of a molar concentration.

Molecule | pKi
C[C@]12CC[C@@H]3c4ccc(O)cc4CC[C@H]3[C@@H]1CC[C@@H]2O[C@@H]1O[C@H](C(=O)O)[C@@H](O)[C@H](O)[C@H]1O [ESTRADIOL 17B GLUCURONIDE] | 5.35

query: pKi lookup needed for `C[C@]12CC[C@@H]3c4ccc(OS(=O)(=O)O)cc4CC[C@H]3[C@@H]1CCC2=O` , thanks.
result: 7.34
